# study.target: Melatonin receptor type 1C (Xenopus laevis, UniProt P49219)
# Sequence (P49219 whole entry): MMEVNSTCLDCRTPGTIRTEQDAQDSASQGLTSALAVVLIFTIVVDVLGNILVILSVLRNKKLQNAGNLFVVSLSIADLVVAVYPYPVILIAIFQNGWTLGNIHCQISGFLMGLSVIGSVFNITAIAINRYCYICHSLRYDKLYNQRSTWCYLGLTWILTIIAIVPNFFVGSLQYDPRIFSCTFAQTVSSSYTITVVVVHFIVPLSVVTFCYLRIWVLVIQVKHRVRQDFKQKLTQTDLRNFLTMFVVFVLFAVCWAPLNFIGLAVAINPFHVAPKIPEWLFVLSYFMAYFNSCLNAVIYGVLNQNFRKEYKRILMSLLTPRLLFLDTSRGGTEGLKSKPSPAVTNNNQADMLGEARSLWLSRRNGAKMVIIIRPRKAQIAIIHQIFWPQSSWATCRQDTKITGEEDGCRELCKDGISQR
quantity: Ki

compound | result
CCC(=O)NCCc1c(Cc2ccccc2)[nH]c2ccccc12 [Luzindole,N-propanoyl] | 3160 nM

**Q:** Which Ki is reported with Melatonin receptor type 1C (Xenopus laevis, UniProt P49219) for this entry: CC(=O)NCCc1c(Cc2ccccc2)[nH]c2ccccc12 [CAS_117946-91-5] ?
**A:** 2040 nM

---

Notes on Ki obtained with UniProt:P51050.
Sequence (P51050 whole entry): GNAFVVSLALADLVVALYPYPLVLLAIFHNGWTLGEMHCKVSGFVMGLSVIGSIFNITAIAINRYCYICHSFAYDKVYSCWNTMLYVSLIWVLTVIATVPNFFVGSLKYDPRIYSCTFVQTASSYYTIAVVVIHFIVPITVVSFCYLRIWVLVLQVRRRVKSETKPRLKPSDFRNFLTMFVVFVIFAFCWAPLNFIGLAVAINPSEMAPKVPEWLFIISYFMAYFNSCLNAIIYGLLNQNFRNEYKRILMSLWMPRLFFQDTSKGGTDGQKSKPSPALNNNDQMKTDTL

**Q:** Which Ki is reported with UniProt:P51050 for this entry: `CCCC(=O)NCCc1c(Cc2ccccc2)[nH]c2ccccc12` ?
**A:** > 10 µM

**Q:** Which Ki is reported with UniProt:P51050 for this entry: `CC(=O)NCCc1c(Cc2ccccc2)[nH]c2ccccc12` ?
**A:** 1.74 µM

**Q:** Which Ki is reported with UniProt:P51050 for this entry: `CCC(=O)NCCc1c(Cc2ccccc2)[nH]c2ccccc12` ?
**A:** 1.95 µM

**Q:** Which Ki is reported with UniProt:P51050 for this entry: `CCCCCC(=O)NCCc1c(Cc2ccccc2)[nH]c2ccc(OC)cc12` ?
**A:** 0.776 µM
